tested on: Panc10.05-G12D; assay: Viability assay (CellTiterBlue, 72 hr) Panc10.05; type: cell-based; conditions: Homo sapiens, Panc1005, GI50, CellTiterBlue, Panc10.05 K-Ras G12D, read-out: 72 hr Cell Viability Panc10.05 (G12D)
Labelling field: enter Condition met if recorded IC50 is less than 4000 nM. Enter Condition not met if it equals or exceeds that cut-off.

See these solved cases before continuing.
| MOLECULE | CLASS |
| --- | --- |
| COc1nn(C)cc1C(=O)Nc1nc(-c2ccc3c(c2)CCC(=O)N3)cs1 | Condition not met |
| Cc1nc(C2CC2)oc1C(=O)Nc1nc(-c2ccc3c(c2)CCC(=O)N3Cc2cccnc2)cs1 | Condition met |
| Cc1nc(C2CCOC2)oc1C(=O)Nc1nc(-c2ccc3c(c2)CCC(=O)N3Cc2cccnc2)cs1 (centres unmarked) | Condition not met |
| Cc1cn(C)nc1C(=O)Nc1nc(-c2ccc3c(c2)CCC(=O)N3)cs1 | Condition met |
| Cc1nn(C)cc1C(=O)Nc1nc(-c2ccc3c(c2)CCC(=O)N3)cs1 | Condition met |
| Cc1nc(C)c(C(=O)Nc2nc(-c3ccc4c(c3)CCC(=O)N4Cc3cccc4c3OCO4)cs2)o1 | Condition met |

Req: Hi there! Is IC50 for CCc1nc(C)c(C(=O)Nc2nc(-c3ccc4c(c3)CCC(=O)N4Cc3ccccc3)cs2)o1 below 4000 nM, do you know?
Resp: Condition not met
